Catalogue of molecules with associated UI
System: Rattus norvegicus
Experiment: Gastrointestinal toxicity in albino rat assessed as ulcer index at 100 mg/kg, po
Format: organism-based
Parameters: dose 100 mg/kg, route oral
Settings: in vivo
ASSAY METRIC: UI

O=C(Nc1ccc(Cl)cc1)c1nn(-c2ccccc2)c(-c2ccccc2)c1C(=O)c1ccccc1    20.3
CC(=O)c1ccc(NC(=O)c2nn(-c3ccccc3)c(-c3ccccc3)c2C(=O)c2ccccc2)cc1    11
O=C(O)c1nn(-c2ccccc2)c(-c2ccccc2)c1C(=O)c1ccccc1    8
COc1ccc(NC(=O)c2nn(-c3ccccc3)c(-c3ccccc3)c2C(=O)c2ccccc2)cc1    33.3
COc1ccc(NC(=O)c2nn(-c3ccccc3)c(-c3ccccc3)c2/C(=N/O)c2ccccc2)cc1    8.5
O=C(c1ccccc1)c1c(C(=O)N2CCN(C(=O)CO[N+](=O)[O-])CC2)nn(-c2ccccc2)c1-c1ccccc1    5.5
O=C(Nc1ccc(S(=O)(=O)Nc2ncccn2)cc1)c1nn(-c2ccccc2)c(-c2ccccc2)c1C(=O)c1ccccc1    9.3
Cc1ccc(NC(=O)c2nn(-c3ccccc3)c(-c3ccccc3)c2/C(=N/O)c2ccccc2)cc1    3

Source: ChEMBL document CHEMBL1158424
